Kindly supply the reported log10 IC50 values for the records listed here.
molecular target: Neuronal acetylcholine receptor; alpha4/beta2 (Rattus norvegicus, UniProt P09483+P12390); experiment: Inhibitory activity against nAChR mediated nicotine-evoked [3H]DA overflow using rat striatal slices
Sequence (P09483 whole entry): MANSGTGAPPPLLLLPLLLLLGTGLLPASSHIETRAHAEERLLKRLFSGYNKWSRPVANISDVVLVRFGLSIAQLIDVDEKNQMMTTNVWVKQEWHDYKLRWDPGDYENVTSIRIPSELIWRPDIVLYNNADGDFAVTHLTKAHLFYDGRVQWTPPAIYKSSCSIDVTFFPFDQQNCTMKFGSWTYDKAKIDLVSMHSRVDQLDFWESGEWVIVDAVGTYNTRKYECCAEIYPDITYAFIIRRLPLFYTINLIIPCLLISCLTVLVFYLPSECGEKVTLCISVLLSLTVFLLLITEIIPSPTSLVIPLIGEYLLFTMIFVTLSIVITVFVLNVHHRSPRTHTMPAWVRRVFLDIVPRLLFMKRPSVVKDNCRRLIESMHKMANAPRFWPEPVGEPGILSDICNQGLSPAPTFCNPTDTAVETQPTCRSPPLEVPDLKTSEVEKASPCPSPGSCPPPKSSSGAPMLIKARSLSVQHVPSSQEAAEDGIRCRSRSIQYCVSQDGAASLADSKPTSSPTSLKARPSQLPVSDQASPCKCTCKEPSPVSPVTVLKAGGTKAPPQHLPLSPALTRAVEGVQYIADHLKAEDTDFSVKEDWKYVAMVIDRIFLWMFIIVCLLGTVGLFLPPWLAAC
Sequence (P12390 whole entry): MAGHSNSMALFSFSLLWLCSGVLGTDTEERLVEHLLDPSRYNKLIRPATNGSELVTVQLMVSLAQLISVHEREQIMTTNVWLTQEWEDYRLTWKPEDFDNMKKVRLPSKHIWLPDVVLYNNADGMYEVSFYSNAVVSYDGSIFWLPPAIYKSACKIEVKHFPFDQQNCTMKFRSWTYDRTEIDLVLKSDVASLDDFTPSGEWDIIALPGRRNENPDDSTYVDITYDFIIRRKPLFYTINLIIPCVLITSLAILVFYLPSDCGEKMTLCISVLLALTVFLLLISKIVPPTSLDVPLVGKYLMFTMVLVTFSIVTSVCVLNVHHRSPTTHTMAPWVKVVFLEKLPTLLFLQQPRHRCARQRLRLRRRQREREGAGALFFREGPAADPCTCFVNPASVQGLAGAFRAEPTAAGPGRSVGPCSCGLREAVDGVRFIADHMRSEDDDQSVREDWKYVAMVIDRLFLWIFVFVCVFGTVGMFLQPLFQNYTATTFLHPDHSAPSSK
In plain terms, each number is the log10 of measured IC50 in nM.

log10 IC50 in this record for CCCCCCCCCC[n+]1ccc2c(c1)[C@H]1[C@@H](CC2)CCN1C.[I-] : 2.76

So, CCCCCCCCCC[n+]1ccccc1.[I-] ? Its log10 IC50 was 2.11

Notebook: c1cc[n+](CCCCCCCCCCCCCC[n+]2ccccc2)cc1 , log10 IC50 read as 3.00

Please fill in: log10 IC50 reported for CN1CCC[C@H]1c1ccc[n+](CCCCCCCCCCCCCC[n+]2cccc([C@@H]3CCCN3C)c2)c1.[Br-].[Br-] = 2.23

Lookup result for CCCCCCCCCCCC[n+]1ccc2c(c1)[C@H]1[C@@H](CC2)CCN1C.[I-] ; measured log10 IC50: 2.34

Record CCCCCCCCCCCC[n+]1cccc([C@@H]2CCCN2C)c1.[I-] , field log10 IC50: 0.95

// sample CCCCCCCCCCC[n+]1ccc2c(c1)[C@H]1[C@@H](CC2)CCN1C.[I-] , its log10 IC50 was 1.60

The compound identified as CCCCCCCCC[n+]1cccc2c1CC[C@@H]1CCN(C)[C@H]21.[I-] registered its log10 IC50 at 2.49

According to the records, this compound CCCCCCCCCC[n+]1cccc2c1CC[C@@H]1CCN(C)[C@H]21.[I-] displays log10 IC50 of 1.48

Sample CCCCCCCCCCC[n+]1cccc2c1CC[C@@H]1CCN(C)[C@H]21.[I-] ; log10 IC50 observed: 1.60

---

molecular target: Neuronal acetylcholine receptor; alpha4/beta2 (Rattus norvegicus, UniProt P09483+P12390); assay: Inhibitory activity against nAChR mediated nicotine-evoked [3H]DA overflow using rat striatal slices
pIC50: −log10 of the molar value.
# label = yes (1) if pIC50 >= 7 else no (0)

Query: Test whether the compound CCCCCCCCCCCC[n+]1ccccc1.[I-] records pIC50 of 7 or higher.
Response: no (0)

Query: Answer whether pIC50 of CCCCCCCC[n+]1cccc2c1CC[C@@H]1CCN(C)[C@H]21.[I-] is greater than or equal to 7.
Response: yes (1)

Query: Is pIC50 for CCCCCCCCCCCCCCC[n+]1ccccc1.[Br-] at or above 7?
Response: no (0)

Query: Is pIC50 at least 7? Consider CCCCCCCCC[n+]1ccc2c(c1)[C@H]1[C@@H](CC2)CCN1C.[I-]
Response: no (0)

---

target: Neuronal acetylcholine receptor; alpha4/beta2 (Rattus norvegicus, UniProt P09483+P12390); assay: Inhibition of [3H]nicotine binding to Nicotinic acetylcholine receptor alpha4-beta2 in rat brain; type: tissue-based
Output true (1) for records whose Ki is lower than 20 µM, false (0) for records at or above 20 µM.

Query: Ki under 20 µM? Item: CCCCCCCCCC[n+]1ccccc1.[I-]
Response: true (1)

Query: Please determine if CCCCCCCCCC[n+]1cccc([C@@H]2CCCN2C)c1.[I-] is below 20 µM in terms of Ki.
Response: true (1)

Query: Report whether reported Ki is lower than 20 µM (strictly) for c1cc[n+](CCCCCCCCCCCCCC[n+]2ccccc2)cc1
Response: true (1)

Query: Quick check: Ki of CCCCCCCCCCCCCCC[n+]1ccccc1.[Br-] under 20 µM?
Response: false (0)

Query: I wonder whether CN1CCC[C@H]1c1ccc[n+](CCCCCCCCCCCCCC[n+]2cccc([C@@H]3CCCN3C)c2)c1.[Br-].[Br-] has Ki below 20 µM. Can you tell?
Response: true (1)

Query: Regarding CCCCCCCCCCCC[n+]1cccc([C@@H]2CCCN2C)c1.[I-] , kindly confirm whether its Ki is beneath 20 µM.
Response: true (1)
